Target: 5-hydroxytryptamine receptor 1A (Homo sapiens, UniProt P08908)
Sequence (P08908 whole entry): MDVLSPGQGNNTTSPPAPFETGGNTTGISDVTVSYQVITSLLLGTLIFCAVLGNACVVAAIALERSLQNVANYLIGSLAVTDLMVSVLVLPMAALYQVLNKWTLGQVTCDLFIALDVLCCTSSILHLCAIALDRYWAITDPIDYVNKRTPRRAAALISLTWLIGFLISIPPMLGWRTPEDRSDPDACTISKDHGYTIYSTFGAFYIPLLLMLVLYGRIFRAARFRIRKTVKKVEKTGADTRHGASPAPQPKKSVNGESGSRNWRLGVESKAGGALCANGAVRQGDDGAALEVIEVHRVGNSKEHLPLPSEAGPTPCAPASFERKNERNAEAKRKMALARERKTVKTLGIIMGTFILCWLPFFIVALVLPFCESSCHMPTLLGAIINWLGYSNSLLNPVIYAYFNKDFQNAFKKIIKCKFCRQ
Assay: Displacement of [3H]8-OH-DPAT from human 5HT1A receptor expressed in EBNA gene-positive HEK293 cells after 120 mins
Format: cell-based
MEASUREMENT TYPE: Ki (nM)

Example entries and their recorded answers appear below.
Quick note, Ki for CN(C)S(=O)(=O)c1cccc2c(N3CCN(CCCCN4C(=O)C5CCCN5C4=O)CC3)cccc12 (configuration not stated) landed at 350

Field Ki (entry CN(C)S(=O)(=O)c1ccc2cccc(N3CCN(CCCCN4C(=O)C5CCCN5C4=O)CC3)c2c1 (configuration not stated) ) reads 2.4

Ki recorded for this molecule, COc1ccccc1N1CCN(CCCCN2C(=O)N3CCCC3(CCCCNS(=O)(=O)c3cccc4c(N(C)C)cccc34)C2=O)CC1 (configuration not stated) , is 11

According to the records, this molecule CN(C)c1cccc2c(S(=O)(=O)NCCCCCCCC34CCCN3C(=O)N(CCCCN3CCN(c5cccc6ccccc56)CC3)C4=O)cccc12 (configuration not stated) displays Ki of 5

Reported Ki for COc1ccccc1N1CCN(CCCCN2C(=O)N3CCCC3(CCNCCCCCNS(=O)(=O)c3cccc4c(N(C)C)cccc34)C2=O)CC1 (configuration not stated) was 7

P: COc1ccccc1N1CCN(CCCCN2C(=O)N3CCCC3(CCCCNCCCCCNS(=O)(=O)c3cccc4c(N(C)C)cccc34)C2=O)CC1 (configuration not stated)
Q: CN(C)c1cccc2c(S(=O)(=O)NCCCCC34CCCN3C(=O)N(CCCCN3CCN(c5cccc6ccccc56)CC3)C4=O)cccc12 (configuration not stated)
R: CN(C)S(=O)(=O)c1ccc2c(N3CCN(CCCCN4C(=O)C5CCCN5C4=O)CC3)cccc2c1 (configuration not stated)
S: COc1ccccc1N1CCN(CCCCN2C(=O)N3CCCC3(CCCCCCCNS(=O)(=O)c3cccc4c(N(C)C)cccc34)C2=O)CC1 (configuration not stated)
T: COc1ccccc1N1CCN(CCCCN2C(=O)C3CCCN3C2=O)CC1 (configuration not stated)
Query: Ranking field: Ki; order: falling. Reply format: the labels, ordered as requested.
Reply: R, S, P, T, Q

Ref: ChEMBL document CHEMBL1781962
